system: retinal ganglion cell axons; assay: Protection of retinal ganglion cell axons from degeneration following optic nerve transection (Table V); format: in vivo; settings: ± SEM
What RT97-RGC axon density 11 days after ON transection (36 ON axon rescued) was measured for each of the following?

Recorded result, O=C(OCCCCc1ccccc1)[C@@H]1CCCCN1S(=O)(=O)Cc1ccccc1 , RT97-RGC axon density 11 days after ON transection (36 ON axon rescued): 58.4% ±6.4% SEM

Just so you know, measured RT97-RGC axon density 11 days after ON transection (36 ON axon rescued) for O=C(OCCCc1cccnc1)[C@@H]1CCCN1C(=S)NC1CCCCC1 came out at 23.8% ±5.3 SEM

Given item CCC(C)(C)C(=O)C(=O)N1CCC[C@H]1C(=O)SCCC(c1ccccc1)c1ccccc1 , the value recorded as its RT97-RGC axon density 11 days after ON transection (36 ON axon rescued) is −6.3% +3.9% SEM

get_value(item= CCC(C)(C)C(=O)C(=O)N1CCCC1C(=O)O (stereo not shown) , readout=RT97-RGC axon density 11 days after ON transection (36 ON axon rescued)) returns 7.8% ±3.0% SEM

Entry under test: O=C(SCCCc1ccccc1)C1CCCN1C(=O)NC12CC3CC(CC(C3)C1)C2 (stereo not shown) . Its RT97-RGC axon density 11 days after ON transection (36 ON axon rescued) was 100.0% ±5.2% SEM

Note to self: RT97-RGC axon density 11 days after ON transection (36 ON axon rescued) recorded for CCC(C)(C)C(=O)C(=O)N1CCCC[C@H]1C(N)=O was 30.3% ±8.0% SEM

Quick note, RT97-RGC axon density 11 days after ON transection (36 ON axon rescued) for CCC(C)(C)C(=O)C(=O)N1CCS[C@H]1C(=O)OCCCc1cccnc1 landed at 55.1% ±5.9% SEM
